Where these numbers come from: paper PMC11249646

Protein target, amino acids: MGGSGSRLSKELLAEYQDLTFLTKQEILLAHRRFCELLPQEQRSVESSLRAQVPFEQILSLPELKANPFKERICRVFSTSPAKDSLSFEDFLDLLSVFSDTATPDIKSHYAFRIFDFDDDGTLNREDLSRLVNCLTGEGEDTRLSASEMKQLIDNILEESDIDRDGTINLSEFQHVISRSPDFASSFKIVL
Experimental endpoint: pIC50
To interpret pIC50, take it as minus log10 of a concentration measured in moles per litre.

COc1ccccc1C(=O)c1no[n+]([O-])c1C(=O)c1ccccc1OC.O=C(O)C(F)(F)F: 4.81

Just so you know, measured pIC50 for Oc1ccc2ccccc2c1SSc1c(O)ccc2ccccc12 [NCGC00186047-02, IPA-3, reference compound] came out at 4.78

---

molecular target: CIB1 and αIIb interaction (CIB1-GST : F-αIIb peptide) (Homo sapiens, UniProt Q99828); construct: made in house; host or cells: BL-21 plus RIL cells (E. coli); test: FP assay, 1536-well qHTS format (primary and confirmatory screen); type: binding; settings: qHTS primary screen hits, Table S2; read-out: IC50
Experimental endpoint: pIC50
To interpret pIC50, take it as minus log10 of a concentration measured in moles per litre.

Below, 2 molecules whose answers are already recorded.
CC(=O)NC(c1ccco1)c1cc(Br)c2cccnc2c1O.O=C(O)C(F)(F)F (stereo not shown): 4.30
CN(C)c1cccc(N2CCN(c3nn4c(=O)c5ccccc5nc4s3)CC2)c1.Cl: 4.30

GET /values?item= "O=C(O)C(F)(F)F.O=c1c2ccccc2nc2sc(NS(=O)(=O)c3ccc4c(c3)CCC4)nn12" &system= CIB1 and αIIb interaction (CIB1-GST : F-αIIb peptide) (Homo sapiens, UniProt Q99828) returns pIC50: 5.55

GET /values?item= "C[C@](N)(Cc1ccc(O)c(O)c1)C(=O)O" &system= CIB1 and αIIb interaction (CIB1-GST : F-αIIb peptide) (Homo sapiens, UniProt Q99828) returns pIC50: 4.05

GET /values?item= O=C(Cc1ccccc1)NC(c1ccco1)c1cc(Cl)c2cccnc2c1O.O=C(O)C(F)(F)F (stereo not shown) &system= CIB1 and αIIb interaction (CIB1-GST : F-αIIb peptide) (Homo sapiens, UniProt Q99828) returns pIC50: 4.40

GET /values?item= "COc1cccc(S(=O)(=O)Nc2cnccc2C(=O)Nc2nc(-c3ccccc3)cs2)c1.O=C(O)C(F)(F)F" &system= CIB1 and αIIb interaction (CIB1-GST : F-αIIb peptide) (Homo sapiens, UniProt Q99828) returns pIC50: 4.30

---

target: GST-CIB1 : F-scrambled peptide (Homo sapiens, UniProt Q99828); construct: made in house; host or cells: BL-21 plus RIL cells (E. coli); test: FP scrambled-peptide counter screen, 384-well format; assay type: binding; conditions: F-scrambled peptide; read-out: 384-well COUNTERSCREEN IC50
Experimental endpoint: pIC50
To interpret pIC50, take it as minus log10 of a concentration measured in moles per litre.

CCc1nnc(NS(=O)(=O)c2ccc(NC(=S)NC(=O)/C=C/c3ccc(F)cc3)cc2)s1 [NCGC00351476-01]: 5.30

Please examine the following record next.
Just so you know, measured pIC50 for COc1cccc(-n2c(SCc3cc(=O)oc4cc(O)c(O)cc34)nc3ccccc3c2=O)c1.O=C(O)C(F)(F)F [NCGC00371345-01] came out at 5.15

---

compounds and their reported pIC50
target: CIB1 and αIIb interaction (CIB1-GST : F-αIIb peptide) (Homo sapiens); construct: made in house; host or cells: BL-21 plus RIL cells (E. coli); assay: FP assay, 1536-well qHTS format (primary and confirmatory screen); assay type: binding; details: qHTS primary screen hits, Table S2; read-out: IC50
To interpret pIC50, take it as minus log10 of a concentration measured in moles per litre.

Below, 5 compounds whose answers are already recorded.
O=C1Nc2ccc3ncsc3c2/C1=C/c1c[nH]cn1 [NCGC00387501-01]: 5.15
Cc1c(-c2cccc3c(CCCOc4cccc5ccccc45)c(C(=O)O)n(Cc4cccnc4)c23)c(COc2ccc(N3CCN(S(=O)(=O)N(C)C)CC3)cc2)nn1C [NCGC00347282-01]: 4.52
Nc1cc(-c2ccncc2)c[nH]c1=O [NCGC00016896-06]: 4.30
O=C(O)C(F)(F)F.OCc1cn(Cc2ccc(O)c3ncccc23)cn1 [NCGC00183377-01]: 4.35
COc1cccc(CNc2ccc(S(=O)(=O)Nc3ccc(C4CCNCC4)cc3)cc2)c1O.O=C(O)C(F)(F)F [NCGC00343917-01]: 4.30

Just so you know, measured pIC50 for O=C(O)C(F)(F)F.O=C1CC(c2ccccc2Br)c2sc(N3CCOCC3)nc2N1 (stereo not shown) [NCGC00488255-02] came out at 4.10

Just so you know, measured pIC50 for Cc1nc(/N=N\c2cc(S(=O)(=O)O)c3cc([N+](=O)[O-])cc(S(=O)(=O)O)c3c2)c(COP(=O)(O)O)c(C=O)c1O [NCGC00162294-03] came out at 5.10

---

compounds and their reported Curve Class
biological target: CIB1 and αIIb interaction (CIB1-GST : F-αIIb peptide) (Homo sapiens, UniProt Q99828); construct: made in house; host or cells: BL-21 plus RIL cells (E. coli); experiment: FP assay, 1536-well qHTS format (primary and confirmatory screen); assay type: binding; settings: qHTS FP screen hits, Table S2; one class per curve where COUNT > 1; negative sign = inhibitory curve
The answer should be written as a number, with no unit following it.

CC1(C)C=CN2C(=O)C3=CCCN3C(=O)[C@@H]2C[C@@]12Nc1ccccc1C2=O [NCGC00380729-01]: -2.2
Cc1c(Cc2ccc3ccccc3n2)c2cc(F)ccc2n1CC(=O)O [NCGC00386286-04]: -2.1
Oc1ccc(Cl)cc1Cc1cc(Cl)ccc1O [NCGC00091325-09]: -2.2
CC(O)c1ccc(-c2ccc3ncnc(NCc4nccs4)c3c2)o1.O=C(O)C(F)(F)F (centres unmarked) [NCGC00238382-01]: -2.2
CC(=O)NC(Cc1c[nH]c2ccccc(=O)c12)C(=O)O (centres unmarked) [NCGC00381382-01]: -2.2
COc1ccccc1S(=O)(=O)Nc1cnccc1C(=O)Nc1nc(-c2ccccc2)cs1.O=C(O)C(F)(F)F [NCGC00344905-01]: -2.2
COc1ccc2nc3[nH]nc(C)c3c(NCCOCCO)c2c1 [NCGC00384193-04]: -2.2

Just so you know, measured Curve Class for Cc1ccc(S(=O)(=O)Nc2cnccc2C(=O)Nc2nc(-c3ccc4c(c3)CCCC4)cs2)cc1.O=C(O)C(F)(F)F [NCGC00318953-01] came out at -1.2

---

compounds and their reported Curve Class
target: CIB1 and αIIb interaction (CIB1-GST : F-αIIb peptide) (Homo sapiens, UniProt Q99828); construct: made in house; host or cells: BL-21 plus RIL cells (E. coli); test: FP assay, 1536-well qHTS format (primary and confirmatory screen); format: binding; details: qHTS primary screen hits, Table S2; negative sign = inhibitory curve; several classes where COUNT > 1
The answer should be written as a number, with no unit following it.

Below, 10 compounds whose answers are already recorded.
Cc1ccc(-c2cc(-c3nn(-c4nc(C(=O)O)cs4)c(CC4CC4)c3Cc3ccc(S(N)(=O)=O)c(F)c3)ccc2F)s1.Cl: -1.4
CCC(OC(=O)c1ccc(S(C)(=O)=O)c([N+](=O)[O-])c1)C(=O)NC1C2CC3CC(C2)CC1C3 (stereo not drawn): -1.4
O=C(O)C(F)(F)F.O=C1Nc2ccccc2/C1=N/NC(=S)NCc1ccccc1: -1.4
Cc1cccc(C(=O)c2no[n+]([O-])c2C(=O)c2cccc(C)c2)c1.O=C(O)C(F)(F)F: -1.2
COC(=O)c1ccc2c(c1)S(=O)(=O)N=C2Sc1cc(C)ccc1C: -2.2
N#C[C@@H]1C[C@@H]2C[C@@H]2N1C(=O)[C@@H](N)C12CC3CC(CC(O)(C3)C1)C2: -2.2
O=C(O)C(F)(F)F.O=C(O)c1ccc(-c2ccc3ncnc(N4CCOCC4)c3c2)o1: -1.4
Cc1ccccc1S(=O)(=O)Nc1cnccc1C(=O)Nc1nc(-c2ccccc2)cs1.O=C(O)C(F)(F)F: -2.2
CO[C@@H]1C(N(C)C(=O)c2ccccc2)C[C@H]2O[C@]1(C)n1c3ccccc3c3c4c(c5c6ccccc6n2c5c31)C(=O)NC4=O (stereo partly drawn): -2.2
Nc1ccncc1N: -2.4

Just so you know, measured Curve Class for CC(=O)NC(C)c1cc(Cl)c2cccnc2c1O (stereo not drawn) came out at -2.4

Just so you know, measured Curve Class for "Cc1ccc(S(=O)(=O)Nc2ccc(Br)cc2C(=O)Nc2nc(-c3ccccc3)cs2)cc1.O=C(O)C(F)(F)F" came out at -2.4

Just so you know, measured Curve Class for O=C1NC(c2ccc(N3CCOCC3)cc2)(c2ccsc2)CC(O)=C1Sc1ccccc1Cl (stereo not drawn) came out at -1.4

Just so you know, measured Curve Class for "Cl.Cl.O=C(O)c1cn(-c2ccc(F)cc2)c2cc(N3CCNCC3)c(F)cc2c1=O" came out at -3

Just so you know, measured Curve Class for CCOC(=O)c1[nH]c2c(c1C)C(=S)CC(c1ccco1)C2.O=C(O)C(F)(F)F (stereo not drawn) came out at -2.2
